In this section we review reported EC50(nM), FasL antigen-induced NF-κB signaling pathway activation values for a set of binders.
# System: T1, hFc-hFasL (fusion protein of human Fc fragment and human FasL extracellular region) (human, UniProt P48023 134-281)
# T1 sequence: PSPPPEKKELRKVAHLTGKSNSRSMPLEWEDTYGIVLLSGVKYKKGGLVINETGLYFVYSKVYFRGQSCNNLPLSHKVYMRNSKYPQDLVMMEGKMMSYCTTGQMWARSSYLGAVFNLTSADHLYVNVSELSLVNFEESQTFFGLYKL
# Protocol text: cell-based or functional assay
Metric: EC50(nM), FasL antigen-induced NF-κB signaling pathway activation

Binder: humFL-M88-3 (antibody, human IgG4, V domains shown, Humanized FL-M88) VH: QVQLVQSGAEVKKPGASVKVSCKGSGYTFTDYTIHWVRQAPGQGLEWMGVISTYQGDASYNQKFKGRATMTVDKSTSTAYMELSSLRSEDTAVYYCARFPDWDYAMDYWGQGTLVTVSS VL: EIVMTQSPATLSVSPGERATLSCKASQSVDYDGDSYMNWYQQKPGQPPRLLIYAASNLESGIPARFSGSGSGTEFTLTISSLQSEDFAVYYCQHSRELPYTFGQGTKLEIK
Assay value: 0.444
//
Binder: humFL-M88-15 (antibody, human IgG4, V domains shown, Humanized FL-M88) VH: QVQLVQSGAEVKKPGASVKVSCKGSGYTFTDYTIHWVRQAPGQGLEWMGVISTYQGDASYNQKFKGRATMTVDKSTSTAYMELSSLRSEDTAVYYCARFPDWDYAMDYWGQGTLVTVSS VL: EIVMTQSPATLSVSPGERATLSCKASQSVDYDGDSYMNWYQQKPGQPPRLLIYAASNLESGIPARFSGSGSGTEFTLTISSLQSEDFAVYYCQQSRELPYTFGQGTKLEIK
Assay value: 0.47
//
Binder: humFL-M88-13 (antibody, human IgG4, V domains shown, Humanized FL-M88) VH: QVQLVQSGAEVKKPGASVKVSCKGSGYTFTDYTIHWVRQAPGQGLEWIGVISTYQGDASYNQKFKGRATMTVDKSTSTAYMELSSLRSEDTAVYYCARFPDWDYAMDYWGQGTLVTVSS VL: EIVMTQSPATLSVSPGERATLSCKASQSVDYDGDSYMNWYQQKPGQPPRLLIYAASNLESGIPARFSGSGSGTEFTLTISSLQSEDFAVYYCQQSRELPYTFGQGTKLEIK
Assay value: 0.698
//
Binder: humFL-M88-1 (antibody, human IgG4, V domains shown, Humanized FL-M88) VH: QVQLVQSGAEVKKPGASVKVSCKGSGYTFTDYTIHWVRQAPGQGLEWIGVISTYQGDASYNQKFKGRATMTVDKSTSTAYMELSSLRSEDTAVYYCARFPDWDYAMDYWGQGTLVTVSS VL: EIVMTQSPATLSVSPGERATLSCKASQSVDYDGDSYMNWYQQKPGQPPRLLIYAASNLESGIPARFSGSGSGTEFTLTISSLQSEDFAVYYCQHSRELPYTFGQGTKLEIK
Assay value: 0.454
